Assay system His tagged full-length PTPN1 protein (Homo sapiens); read-out recorded as pIC50.
pIC50: −log10 of the molar value.

Guide cases for pIC50, answers given:
>>> result("CCCCNCC1CCc2cc(O)c(N3CC(=O)NS3(=O)=O)c(F)c2C1 (stereo not shown)")
"7.00 to 8.00"
>>> result("CC(C)CCN[C@H]1CCc2cc(O)c(N3CC(=O)NS3(=O)=O)c(F)c2C1 (single isomer, unassigned)")
"7.00 to 8.00"
>>> result("O=C1CN(c2c(O)cc3c(c2F)CN(CCCC2CCCCC2)CC3)S(=O)(=O)N1")
"8.00 to 9.00"
>>> result("O=C1CN(c2c(O)cc3c(c2F)C(=O)NCC3)S(=O)(=O)N1")
"< 7.00"
>>> result("Cc1c(CNC(=O)N2CCc3cc(O)c(N4CC(=O)NS4(=O)=O)c(F)c3C2)cnn1C")
"7.00 to 8.00"
>>> result("[2H]C1([2H])Cc2cc(O)c(N3CC(=O)NS3(=O)=O)c(F)c2C([2H])([2H])C1([2H])NCCC(C)C (stereo not shown)")
"8.00 to 9.00"

// pIC50 (His tagged full-length PTPN1 protein (Homo sapiens)) for O=C1CN(c2c(O)cc3c(c2F)CN(CCCc2ccc(F)cc2)CC3)S(=O)(=O)N1 = 7.00 to 8.00

// pIC50 (His tagged full-length PTPN1 protein (Homo sapiens)) for O=C1CN(c2c(O)cc3c(c2F)C[C@H](NCC2CCOC2)CC3)S(=O)(=O)N1 (stereo partly shown) = 7.00 to 8.00

// pIC50 (His tagged full-length PTPN1 protein (Homo sapiens)) for CC(C)CCNC[C@H]1Cc2cc(O)c(N3CC(=O)NS3(=O)=O)c(F)c2C1 (single isomer, unassigned) = 7.00 to 8.00
